molecular target: Neutrophil collagenase (Homo sapiens); test: Inhibition of MMP8
Sequence (P22894 whole entry): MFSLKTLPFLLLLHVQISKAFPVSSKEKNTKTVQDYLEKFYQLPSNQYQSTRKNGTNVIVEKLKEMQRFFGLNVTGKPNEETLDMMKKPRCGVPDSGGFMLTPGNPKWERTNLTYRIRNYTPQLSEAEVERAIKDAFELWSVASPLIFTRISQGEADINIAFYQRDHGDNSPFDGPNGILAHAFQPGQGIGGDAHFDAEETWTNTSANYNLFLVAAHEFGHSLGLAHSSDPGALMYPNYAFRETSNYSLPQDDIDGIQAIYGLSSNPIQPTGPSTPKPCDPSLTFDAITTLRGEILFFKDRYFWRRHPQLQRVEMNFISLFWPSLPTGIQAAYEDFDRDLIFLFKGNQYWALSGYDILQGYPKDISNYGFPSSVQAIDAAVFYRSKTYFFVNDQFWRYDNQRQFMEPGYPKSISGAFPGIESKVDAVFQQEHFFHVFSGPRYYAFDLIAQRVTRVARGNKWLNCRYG
measurement name: IC50 (nM)
Expressed in nM, but write only the number.

Reported IC50, compound `CC(C)[C@H](C(=O)NO)N(Cc1ccccc1)S(=O)(=O)c1ccc(F)cc1` : ____
12

Reported IC50, compound `CC(C)[C@H](C(=O)NO)N(Cc1ccccc1)S(=O)(=O)c1ccc(OCCF)cc1` : ____
2

Reported IC50, compound `COc1ccc(S(=O)(=O)N(Cc2cccnc2Br)[C@@H](C(=O)NO)C(C)C)cc1` : ____
75

Reported IC50, compound `CC(C)[C@H](C(=O)NO)N(Cc1cccnc1)S(=O)(=O)c1ccc(F)cc1` : ____
228

Reported IC50, compound `CC(C)[C@H](C(=O)O)N(Cc1cccnc1)S(=O)(=O)c1ccc(F)cc1` : ____
71000

Reported IC50, compound `CC(C)[C@H](C(=O)NO)N(Cc1ccccc1)S(=O)(=O)c1ccc(N(C)C)cc1` : ____
105

Reported IC50, compound `COc1ccc(S(=O)(=O)N(Cc2cccnc2F)[C@@H](C(=O)NO)C(C)C)cc1` : ____
18

Reported IC50, compound `COc1ccc(S(=O)(=O)N(Cc2ccc(Br)nc2)[C@@H](C(=O)O)C(C)C)cc1` : ____
6760

Reported IC50, compound `COc1ccc(S(=O)(=O)N(Cc2cccnc2Br)[C@@H](C(=O)O)C(C)C)cc1` : ____
7480

Reported IC50, compound `CC(C)[C@H](C(=O)NO)N(Cc1cccnc1)S(=O)(=O)c1ccc([N+](=O)[O-])cc1` : ____
14

Reported IC50, compound `CC(C)[C@H](C(=O)O)N(Cc1ccccc1)S(=O)(=O)c1ccc(F)cc1` : ____
754
